The compounds listed here are annotated with their IC50.
STUDY_TARGET: Epidermal growth factor receptor (Homo sapiens, UniProt P00533, L858R/T790M)
Sequence (P00533 25-1210 T790M/L858R limits assumed): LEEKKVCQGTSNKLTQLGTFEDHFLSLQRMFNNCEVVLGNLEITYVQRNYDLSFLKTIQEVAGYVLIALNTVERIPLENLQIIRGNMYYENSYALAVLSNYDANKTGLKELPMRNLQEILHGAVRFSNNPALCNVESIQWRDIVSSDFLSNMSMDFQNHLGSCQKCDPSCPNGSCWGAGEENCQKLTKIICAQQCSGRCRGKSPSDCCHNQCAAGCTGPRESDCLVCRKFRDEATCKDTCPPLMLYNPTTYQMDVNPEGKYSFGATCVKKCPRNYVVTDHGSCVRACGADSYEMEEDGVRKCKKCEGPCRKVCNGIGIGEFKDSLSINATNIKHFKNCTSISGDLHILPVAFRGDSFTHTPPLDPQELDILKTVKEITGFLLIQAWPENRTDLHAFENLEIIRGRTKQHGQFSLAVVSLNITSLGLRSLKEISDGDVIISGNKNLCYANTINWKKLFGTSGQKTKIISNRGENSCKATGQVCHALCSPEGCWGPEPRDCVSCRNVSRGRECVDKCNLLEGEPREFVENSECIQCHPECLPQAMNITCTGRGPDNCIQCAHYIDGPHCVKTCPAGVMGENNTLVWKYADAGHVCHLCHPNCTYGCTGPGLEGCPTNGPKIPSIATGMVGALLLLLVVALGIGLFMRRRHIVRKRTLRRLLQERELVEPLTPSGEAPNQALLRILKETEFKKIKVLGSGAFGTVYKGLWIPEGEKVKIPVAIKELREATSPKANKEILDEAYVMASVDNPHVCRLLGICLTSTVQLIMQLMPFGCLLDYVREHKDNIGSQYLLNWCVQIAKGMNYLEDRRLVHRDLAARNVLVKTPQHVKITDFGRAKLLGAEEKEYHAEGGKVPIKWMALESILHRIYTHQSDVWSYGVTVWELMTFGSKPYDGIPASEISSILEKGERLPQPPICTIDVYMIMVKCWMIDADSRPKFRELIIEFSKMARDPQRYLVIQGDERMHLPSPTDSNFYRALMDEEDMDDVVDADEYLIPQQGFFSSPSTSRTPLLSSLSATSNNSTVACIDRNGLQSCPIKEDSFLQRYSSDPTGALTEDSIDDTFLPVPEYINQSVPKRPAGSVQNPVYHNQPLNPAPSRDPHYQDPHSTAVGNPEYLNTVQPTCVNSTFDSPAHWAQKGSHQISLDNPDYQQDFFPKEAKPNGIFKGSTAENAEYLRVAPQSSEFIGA
Numbers only here, please. The scale is nM.

The examples below pair each entry with its known result.
> print(dat)
                                   compound  readout.unit  measured
1  C=CC(=O)Nc1cc(Nc2nccc(NC(=O)c3cccc4ccccc34)n2)c(OC)cc1N1CCN(C)CC1            nM      33.3
2  C=CC(=O)Nc1cc(Nc2nccc(NC(=O)c3ccc(C(F)(F)F)cc3)n2)c(OC)cc1N(C)CCN(C)C            nM      46.5
3  C=CC(=O)Nc1cc(Nc2nccc(NC(=O)c3ccccc3)n2)c(OC)cc1N1CCC(C(N)=O)CC1            nM     0.587
4  C=CC(=O)Nc1cc(Nc2nccc(NC(=O)c3ccccc3)n2)c(OC)cc1N(C)CCN(C)C            nM       143
5  C=CC(=O)Nc1cc(Nc2nccc(NC(=O)c3ccc(C(F)(F)F)cc3)n2)c(OC)cc1N1CCN(C)CC1            nM      27.9

API: value(readout= IC50, system= Epidermal growth factor receptor (Homo sapiens, UniProt P00533, L858R/T790M), query= `C=CC(=O)Nc1cc(Nc2nccc(NC(=O)c3ccc(OC)c(OC)c3)n2)c(OC)cc1N1CCC(C(N)=O)CC1` ) 54.7

API: value(readout= IC50, system= Epidermal growth factor receptor (Homo sapiens, UniProt P00533, L858R/T790M), query= `C=CC(=O)Nc1cc(Nc2nccc(NC(=O)c3ccccc3)n2)c(OC)cc1N1CCN(C)CC1` ) 121

API: value(readout= IC50, system= Epidermal growth factor receptor (Homo sapiens, UniProt P00533, L858R/T790M), query= `C=CC(=O)Nc1cc(Nc2nccc(NC(=O)c3cccc(OC)c3)n2)c(OC)cc1N(C)CCN(C)C` ) 59

API: value(readout= IC50, system= Epidermal growth factor receptor (Homo sapiens, UniProt P00533, L858R/T790M), query= `C=CC(=O)Nc1cc(Nc2nccc(NC(=O)c3ccc(OC)c(OC)c3)n2)c(OC)cc1N(C)CCN(C)C` ) 123

API: value(readout= IC50, system= Epidermal growth factor receptor (Homo sapiens, UniProt P00533, L858R/T790M), query= `C=CC(=O)Nc1cc(Nc2nccc(NC(=O)c3cccc(OC)c3)n2)c(OC)cc1N1CCN(C)CC1` ) 55
